- procedure details: Drug uptake in human HeLa cells at 5 uM by confocal scanning microscopy
- Format: ADME, cell-based
- study conditions: 3 h, TDE = time-dependent effect
value type: Drug uptake

Some solved entries appear below for comparison.
smiles repr	Drug uptake
Br.COc1ccc2c(c1)CCc1c(-c3ccccc3)c3n(c1-2)[B-](F)(F)[N+]1=C(c2ccc(OCc4cn(CCC[P+](c5ccccc5)(c5ccccc5)c5ccccc5)nn4)cc2)C(I)=C(c2ccccc2)C1=N3	Tde
COc1ccc2c(c1)CCc1c(-c3ccccc3)c3n(c1-2)[B-](F)(F)[N+]1=C(c2ccc(OCC(=O)NCCCNC(=O)c4c(F)c(F)c(F)c(F)c4F)cc2)C(I)=C(c2ccccc2)C1=N3	Tde
COc1ccc2c(c1)CCc1c(-c3ccccc3)c3n(c1-2)[B-](F)(F)[N+]1=C(c2ccc(OCc4cn(CCCN5CCOCC5)nn4)cc2)C(I)=C(c2ccccc2)C1=N3	Tde
Br.COc1ccc2c(c1)CCc1c(-c3ccccc3)c3n(c1-2)[B-](F)(F)[N+]1=C(c2ccc(OCC(=O)NCCC[P+](c4ccccc4)(c4ccccc4)c4ccccc4)cc2)C(I)=C(c2ccccc2)C1=N3	Tde
COc1ccc2c(c1)CCc1c(-c3ccccc3)c3n(c1-2)[B-](F)(F)[N+]1=C(c2ccc(OCc4cn(CCCNC(=O)c5c(F)c(F)c(F)c(F)c5F)nn4)cc2)C(I)=C(c2ccccc2)C1=N3	Tde

Report Drug uptake for every entry below.
1. COc1ccc(C2=[N+]3C(=Nc4c(-c5ccccc5)c5c(n4[B-]3(F)F)-c3ccc(OC)cc3CC5)C(c3ccccc3)=C2I)cc1
2. COc1ccc2c(c1)CCc1c(-c3ccccc3)c3n(c1-2)[B-](F)(F)[N+]1=C(c2ccc(OCC(=O)NCCCN4CCOCC4)cc2)C(I)=C(c2ccccc2)C1=N3

OUT:
1: Tde; 2: Tde
